# experimental.protocol: Acute toxicity test (LD50), first part
# Format: in vivo
# conditions: mouse, in vivo; oral, male ddY mice, observed for 3 days
experimental.readout: LD50 at 3 days

LD50 at 3 days in this record for COc1ccc(C(=O)N2C(=O)CCC3CCCCC32)cc1 (stereo not drawn) [Compound 1] : > 2000 mg/kg

LD50 at 3 days in this record for COc1ccc(C(=O)N2C(=O)CC3CCCCC32)cc1 (stereo not drawn) [Compound 11] : > 2000 mg/kg

LD50 at 3 days in this record for COc1ccc(C(=O)N2C(=O)CCC3CCCC32)cc1 (stereo not drawn) [Compound 3] : > 2000 mg/kg

Data credit: patent US6500819B2
